The following binders are listed with their measured Kd values.
Target: human CA9 (carbonic anhydrase IX) (human, UniProt Q16790 38-414)
Assay: BIAcore T100, mAb captured on anti-human IgG, antigen as analyte, 1:1 model; mAb purified by protein A (ProA)

>  <Binder>
xi155D5 (rabbit/human chimerized 155D5 mAb) (antibody, human IgG1, kappa, V domains shown, Human IgG1 kappa constant regions; Unpaired Cys80 of the light chain is capped by a free cysteine after plain protein A purification; also called xi155D5 mAb) VH: QSVKESGGRLVTPGTPLTLTCTVSGFSLNSYAMIWVRQAPGEGLEYIGFITTGGTTYYASWAKGRFTISRTSTTVDLKLTRPTTEDTATYFCARDRVKSYDDYGDLDAFEPWGPGTLVTISS VL: ELVMTQTPSSVSAAVGGTVTINCQASQSISSYLAWYQQKPGQPPKLLIYYASTLASGVPSRFKGSGSGTEFTLTITGVQCDDAATYYCLGVYGYSFDDGIAFGGGTELEIKR

>  <Kd / nM>
0.324

$$$$
>  <Binder>
zu155D5-1 (antibody, human IgG1, kappa, V domains shown, Humanized 155D5, human IgG1 kappa; Tested both protein A purified (Cys80 capped) and decapped; also called zu155D5-CXXF; zu155D5-1 (huVK1-5)) VH: QVQLVESGGGLVQPGGSLRLSCSASGFSLNSYAMIWVRQAPGKGLEYIGFITTGGTTYYADSVKGRFTISRDNSKNTLYLQMNSLRAEDTAVYYCARDRVKSYDDYGDLDAFEPWGQGTLVTVSS VL: DIQMTQSPSTLSASVGDRVTITCQASQSISSYLAWYQQKPGKAPKLLIYYASTLASGVPSRFSGSGSGTEFTLTISSLQCDDFATYYCLGVYGYSFDDGIAFGGGTKVEIKR

>  <Kd / nM>
0.498

$$$$
